All figures here come from patent US10149839B2.

- assay: Log D (shake flask, 1-octanol/aqueous buffer)
- assay conditions: pH 7.4, 1-octanol/aqueous buffer
measured parameter: LogD pH 7.4

compound: C[C@@H]1Cc2c([nH]c3ccccc23)[C@@H](c2c(F)cc(OCCNCCCF)cc2F)N1CC(C)(F)CO (single isomer, unassigned)
value measured: 2.7
--
compound: COCC(C)(F)CN1[C@H](c2c(F)cc(OCCNCCCF)cc2F)c2[nH]c3ccccc3c2C[C@H]1C (single isomer, unassigned)
value measured: 3.8
--
compound: C[C@@H]1Cc2c([nH]c3ccccc23)[C@@H](c2c(F)cc(OCCNCCCF)cc2F)N1CC(F)CF (single isomer, unassigned)
value measured: 3.1
--
compound: C[C@@H]1Cc2c([nH]c3ccccc23)[C@@H](c2ccc(OCCNCCCF)cc2)N1C[C@H](F)CF (single isomer, unassigned)
value measured: 3.2

---

- tgt: estrogen receptor (ERα) in CAMA-1 cells (Homo sapiens (Human))
- Sequence (P03372 whole entry): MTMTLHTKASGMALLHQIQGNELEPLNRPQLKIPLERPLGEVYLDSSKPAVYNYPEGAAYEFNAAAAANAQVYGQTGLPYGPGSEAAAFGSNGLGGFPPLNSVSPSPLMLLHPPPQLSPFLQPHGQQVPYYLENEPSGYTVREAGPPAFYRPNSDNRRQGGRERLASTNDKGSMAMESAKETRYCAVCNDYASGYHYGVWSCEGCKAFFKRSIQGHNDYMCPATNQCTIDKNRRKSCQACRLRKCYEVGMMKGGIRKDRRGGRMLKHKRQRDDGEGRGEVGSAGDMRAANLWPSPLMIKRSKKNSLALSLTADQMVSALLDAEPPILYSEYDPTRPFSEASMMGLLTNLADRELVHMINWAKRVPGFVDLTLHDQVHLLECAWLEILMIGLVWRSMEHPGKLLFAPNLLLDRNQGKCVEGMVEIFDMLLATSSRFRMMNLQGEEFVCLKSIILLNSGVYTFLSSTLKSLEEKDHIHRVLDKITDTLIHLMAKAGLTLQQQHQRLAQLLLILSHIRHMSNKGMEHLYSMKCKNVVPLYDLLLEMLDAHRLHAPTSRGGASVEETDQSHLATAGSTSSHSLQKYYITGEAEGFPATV
- assay: Western blotting assay, CAMA-1 cells
- Type: cell-based
- assay conditions: compound 100 nM, 48 h, normalised to 100 nM fulvestrant (100%)
measured parameter: CAMA1 Western % ER deg vs Fv (%)

// worked examples, CAMA1 Western % ER deg vs Fv included
compound: COc1cc(OCCNCCCF)ncc1[C@@H]1c2[nH]c3ccccc3c2C[C@@H](C)N1CC(C)(F)F [Example 42]
CAMA1 Western % ER deg vs Fv (%): 76
//
compound: C[C@@H]1Cc2c([nH]c3ccccc23)[C@@H](c2cnc(OCCNCCCF)cn2)N1CC(C)(C)F [Example 38]
CAMA1 Western % ER deg vs Fv (%): 75
//
compound: COc1cc(OCCNCCCF)ccc1[C@@H]1c2[nH]c3ccccc3c2C[C@@H](C)N1CC1(F)CC1 [Example 11]
CAMA1 Western % ER deg vs Fv (%): 54
//
compound: COCC(F)(F)CN1[C@H](c2c(F)cc(OCCNCCCF)cc2F)c2[nH]c3ccccc3c2C[C@H]1C [Example 14]
CAMA1 Western % ER deg vs Fv (%): 31
//
compound: C[C@@H]1Cc2c([nH]c3ccccc23)[C@@H](c2c(F)cc(NCCNCCCF)cc2F)N1CC(F)F [Example 54]
CAMA1 Western % ER deg vs Fv (%): 92
//
compound: COc1cc(OCCNCCCF)ncc1[C@@H]1c2[nH]c3ccccc3c2C[C@@H](C)N1CC1(F)COC1 [Example 7]
CAMA1 Western % ER deg vs Fv (%): 48
//
compound: COc1cc(OCCNCCCF)ncc1[C@@H]1c2[nH]c3ccccc3c2C[C@@H](C)N1CC(C)(C)F [Example 36]
CAMA1 Western % ER deg vs Fv (%): 66
//
compound: COc1cc(OCCNCCCF)ncc1[C@@H]1c2[nH]c3ccccc3c2C[C@@H](C)N1CC(F)(F)CO [Example 64]
CAMA1 Western % ER deg vs Fv (%): 87

P = C[C@@H]1Cc2c([nH]c3ccccc23)[C@@H](c2c(F)cc(NCCNCCCF)cc2F)N1CC1(F)COC1 [Example 44]
Q = COc1cc(OCCNCCCF)ccc1[C@@H]1c2[nH]c3ccccc3c2C[C@@H](C)N1CC1(F)COC1 [Example 8]
R = C[C@@H]1Cc2c([nH]c3ccccc23)[C@@H](c2c(F)cc(OCCNCCC(F)F)cc2F)N1CC(C)(C)F [Example 3]
[ask] Ascending sort, CAMA1 Western % ER deg vs Fv. // respond by listing labels in the order requested
[reply] R, Q, P
(R: 0%, Q: 38%, P: 90%)
